molecular target: Biotinylated CoV2 Spike ECD PreS-AVI protein (SARS-CoV-2, UniProt P0DTC2 14-1208); test: Octet binning; competitor 15H1
binning response values for the binders below.
No unit in the answer, only the number.

Solved entries:
• 7A9 VHH-Fc (Fc fusion) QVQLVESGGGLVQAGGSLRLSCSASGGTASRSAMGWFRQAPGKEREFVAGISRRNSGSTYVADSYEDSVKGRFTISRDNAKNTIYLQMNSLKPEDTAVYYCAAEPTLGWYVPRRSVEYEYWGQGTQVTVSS = 0.37
• 5A6 VHH-Fc (Fc fusion) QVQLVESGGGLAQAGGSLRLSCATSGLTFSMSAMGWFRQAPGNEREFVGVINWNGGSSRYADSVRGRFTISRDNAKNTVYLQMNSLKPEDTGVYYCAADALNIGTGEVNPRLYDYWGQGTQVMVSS = 0.12
• 15H7 VHH-Fc (Fc fusion) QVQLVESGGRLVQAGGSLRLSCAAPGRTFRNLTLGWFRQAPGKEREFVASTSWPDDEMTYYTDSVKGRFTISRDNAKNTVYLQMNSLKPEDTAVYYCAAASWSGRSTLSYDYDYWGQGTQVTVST = 0.09
• 5D7 VHH-Fc (Fc fusion) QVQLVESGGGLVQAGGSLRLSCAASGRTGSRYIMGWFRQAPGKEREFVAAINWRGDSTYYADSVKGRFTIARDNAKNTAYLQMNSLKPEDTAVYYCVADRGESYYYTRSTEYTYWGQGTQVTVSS = 0.16

Exercise: Give the measured binning response of 9B2 VHH-Fc (Fc fusion) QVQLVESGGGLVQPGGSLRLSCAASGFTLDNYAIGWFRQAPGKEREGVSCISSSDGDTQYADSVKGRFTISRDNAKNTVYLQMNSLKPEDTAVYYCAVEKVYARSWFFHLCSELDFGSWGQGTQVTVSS .
Key: 0.13

Exercise: Give the measured binning response of 11F8 VHH-Fc (Fc fusion) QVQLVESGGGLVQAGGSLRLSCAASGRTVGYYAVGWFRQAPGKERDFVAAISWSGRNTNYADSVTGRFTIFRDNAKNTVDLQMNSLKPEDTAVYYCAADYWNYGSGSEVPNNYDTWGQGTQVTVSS .
Key: 0.15
